- STUDY TARGET: Dihydroorotate dehydrogenase (quinone), mitochondrial (Plasmodium falciparum (isolate 3D7))
- TEST METHOD NOTES: PfDHODH enzyme inhibitors, primary screen, biochemical, C-terminal His tag, absorbance 600 nm (AID 1175);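 further: recombinant parasite enzyme with a five histidine tag at its C terminus; test concentration not given here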
- CONDITION SUMMARY: DCIP absorbance 600 nm, higher = more signal, called active from +8 up or from −8 down
Would you mind labelling by composite z-score? At or over -0.05 is satisfied, under is not satisfied.

INSERT INTO measurements (compound, cat) VALUES
  ('C=C(COC)/C(=C/C[C@@H](OC(=O)c1ccncc1)c1cccc(OCCO)c1)c1cnc2ccccc2c1', 'not satisfied');

Confirm if composite z-score reported for the compound O=C(CS)NCCCCCCNC(=O)[C@H]1C[C@H]2C(=O)N[C@@H](Cc3ccccc3)C(=O)N2[C@H]1c1cccc(OCCO)c1 is -0.05 or above.
not satisfied

For this compound, is measured composite z-score -0.05 or higher? C[C@@H](OCc1ccccc1)C1NC(=O)[C@@]23C(=O)N[C@@H](Cc4ccccc4)C2[C@H](C)[C@@]2(C)O[C@H]2C3/C=C/C/C=C\CNC(=O)CNC1=O (some centres not stated)
not satisfied

Could you please find out whether [N-]=[N+]=NCc1ccccc1[C@H]1OC(c2ccc(OCCCO)cc2)=N[C@@]1(CCS(=O)(=O)c1ccccc1)C(N)=O has composite z-score that meets -0.05 or exceeds it?
not satisfied

Confirm if composite z-score reported for the compound C[C@H]1C2=C3C(CC[C@H]4C(OCc5ccc(F)cc5C(F)(F)F)OC[C@](C)([C@@H]34)N(C(=O)OC(C)(C)C)C2)C2COC(=O)OCC21 (some centres not stated) is -0.05 or above.
satisfied

Decide: composite z-score of COc1ccc([Si](C)(C)[C@H]2[C@H](CCn3cc([C@H](O)c4ccccc4)nn3)O[C@@]3(C(=O)N(Cc4ccc(N5CCC5=O)cc4)c4ccccc43)[C@@H]2C)cc1 >= -0.05?
satisfied

Textbook exercise: given the entry C=CC[C@]12N=C(c3ccc(OCCCO)cc3)O[C@H]1c1ccccc1N(C)C2=O , state whether its composite z-score is greater than or equal to -0.05.
satisfied

###

- STUDY TARGET: Torsin-1A (Homo sapiens) (UniProt O14656)
- Sequence (O14656 whole entry, looked up): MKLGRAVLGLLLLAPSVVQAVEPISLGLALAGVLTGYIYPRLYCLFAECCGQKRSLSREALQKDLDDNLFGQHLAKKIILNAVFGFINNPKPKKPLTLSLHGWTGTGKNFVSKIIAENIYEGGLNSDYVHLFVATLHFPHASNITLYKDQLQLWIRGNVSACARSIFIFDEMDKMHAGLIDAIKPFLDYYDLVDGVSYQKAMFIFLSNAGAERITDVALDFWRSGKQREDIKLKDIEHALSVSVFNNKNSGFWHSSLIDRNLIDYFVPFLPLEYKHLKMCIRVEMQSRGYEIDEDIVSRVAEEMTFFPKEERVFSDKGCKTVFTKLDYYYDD
- TEST METHOD NOTES: torsin A binders from cell lysate, primary screen, small-molecule microarray, wild-type, 635/667 nm (AID 1149)
- CONDITION SUMMARY: COS7 hTOR1A-WT lysate, 635 nm fluorescence, higher = more signal
Our labelling divides records by composite z-score into ranges: lower level (below 0.2), middle level (0.2 to below 0.4), upper level (0.4 or more)

The examples below pair each entry with its known result.
INSERT INTO assay_data (compound, cat) VALUES
  ('C=C(/C=C/CNS(=O)(=O)c1ccc(C)cc1)[C@H](O)[C@H]1CCCN1S(=O)(=O)c1ccccc1[N+](=O)[O-]', 'middle level'),
  ('CCCC=C(CCC)[C@@H](NP(=O)(c1ccccc1)c1ccccc1)c1ccc(C(F)(F)F)cc1', 'middle level'),
  ('COC(=O)C[C@H]1O[C@]2(C(=O)N(C)c3ccccc32)[C@@H](C)[C@@H]1[Si](C)(C)c1ccc(C)cc1', 'upper level'),
  ('CCOc1cc(C(O)C2C=CC3C(=O)N(C)C(=O)C3N2N2CCCCC2)ccc1O (stereo not drawn)', 'middle level'),
  ('CC(C)(C)OC(=O)CC[C@]1(C(=O)O)N=C(c2ccc(OCCCO)cc2)O[C@H]1c1ccccc1CN=[N+]=[N-]', 'lower level'),
  ('COCCOC(=O)N1C(=O)[C@@]2(c3cc(C#CC4=CCCCC4)ccc31)[C@H](c1ccccc1OCCO)N1[C@H](c3ccccc3)[C@H](c3ccccc3)OC(=O)[C@H]1[C@@H]2C(=O)N1CCc2cc(OC)c(OC)cc2C1', 'lower level'),
  ('O=C1O[C@@H](c2ccccc2)[C@@H](c2ccccc2)N2[C@@H](c3ccccc3OCCO)[C@]3(C(=O)Nc4ccccc43)[C@@H](C(=O)NC[C@H](O)c3ccccc3)[C@H]12', 'upper level'),
  ('CCOC(=O)C1=C[C@@H](c2ccccc2)N(S(=O)(=O)c2ccc(C)cc2)[C@H]1c1cccc(Cl)c1', 'upper level'),
  ('O=C1O[C@@H](c2ccccc2)[C@@H](c2ccccc2)N2[C@@H](c3ccccc3OCCO)[C@]3(C(=O)Nc4ccc(C#CCCO)cc43)[C@@H](C(=O)Nc3nc4ccccc4s3)[C@H]12', 'upper level'),
  ('CC=CC(O)C1C=CC2C(=O)N(C)C(=O)C2N1Nc1ccc([N+](=O)[O-])cc1[N+](=O)[O-] (stereo not drawn)', 'middle level');

Tag the class for COc1cc(CO)cc(I)c1O[C@H]1C=C(C(=O)NCCO)C[C@@H](NCc2ccccc2F)[C@@H]1O
middle level

Which category does the recorded composite z-score put Cc1ccc(S[C@]2(C(=O)NC3CC3)CC(=O)N(Cc3ccccc3Cl)[C@@H]2c2ccc(CO)cc2I)cc1 in?
upper level

Please indicate the class for COCCOC(=O)N1C(=O)[C@@]2(c3cc(C#Cc4ccc(OC)cc4)ccc31)[C@H](C(=O)N1CCN(c3ncccn3)CC1)[C@H]1C(=O)O[C@H](c3ccccc3)[C@H](c3ccccc3)N1[C@@H]2c1ccccc1OCCO based on its composite z-score.
middle level

Class label required: COCCOC(=O)N1C(=O)[C@@]2(c3cc(C#CC4=CCCCC4)ccc31)[C@H](C(=O)N1CCN(c3ncccn3)CC1)[C@H]1C(=O)O[C@H](c3ccccc3)[C@H](c3ccccc3)N1[C@@H]2c1ccc(O)cc1
upper level

Which composite z-score band matches COc1ccc(C(O)C2C=CC3C(=O)N(Cc4ccccc4)C(=O)C3N2n2cnnc2)c2ccccc12 (stereo not drawn) ?
upper level

Which category does the recorded composite z-score put CCOC(=O)C[C@H]1[C@H](OC(=O)c2ccccc2-c2ccccc2)[C@@H](NC(=O)CC(C)C)c2cc(OCCCO)ccc2N1C(=O)c1ccc2ccccc2n1 in?
lower level

###

# composite z-score values compiled below
- STUDY TARGET: Fibroblast growth factor 10 (Homo sapiens)
- TEST METHOD NOTES: FGF10 binders on small-molecule microarrays, primary screen, biochemical, small-molecule microarray, 635 nm fluorescence (AID 1102)
- CONDITION SUMMARY: FGF10 binding, fluorescence 635 nm, higher = more signal
Answer field: number only, no words.

# annotated cases, reported composite z-score shown
INSERT INTO assay_data (item_smiles, quantitative_result) VALUES
  ('CC(C)(C)OC(=O)CC[C@]1(C(=O)N2CCOCC2)N=C(c2ccc(OCCCO)cc2)O[C@H]1c1ccccc1', 1.05),
  ('C=C(C(=O)CC[C@H](OC(=O)c1cccnc1)c1ccc(CO)o1)C(C)C', 0.866),
  ('CC(C)CNC(=O)[C@@]1(c2ccc([N+](=O)[O-])cc2)CC(=O)N(C2CCCCC2)[C@@H]1c1ccc(CO)cc1I', 0.489);

We now examine a further compound.
Documented composite z-score of C=CC[C@]1(C(=O)N(C)C)N=C(c2ccc(OCCCO)cc2)O[C@H]1c1ccccc1N=[N+]=[N-] : 0.762

###

- STUDY TARGET: Calmodulin-1 (Homo sapiens)
- TEST METHOD NOTES: CALM1 binders on microarrays, EGTA buffer, profiling panel, biochemical, small-molecule microarray, Cy5-labelled CALM1 (AID 1111);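 further: labelled calmodulin applied in Tris saline Tween buffer holding calcium plus EGTA and DTT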
- CONDITION SUMMARY: Cy5-CALM1 binding fluorescence, higher = more signal
Reported composite z-score by item:
Give your answer as a number; write no unit.

INSERT INTO measurements (compound, study_target, quantitative_result) VALUES
  ('CN1C(=O)C2C=CC(C(O)C3CCCCC3)N(N3CCCCC3)C2C1=O (stereo unspecified)', 'Calmodulin-1 (Homo sapiens)', 0.407),
  ('CN(C)CCCNC(=O)[C@@]1(C)c2ccccc2C(=O)N(Cc2cc(C(F)(F)F)cc(C(F)(F)F)c2)[C@H]1c1ccc(CO)cc1', 'Calmodulin-1 (Homo sapiens)', 0.139),
  ('O=C(O)[C@]1(Cc2ccccc2)N=C(c2ccc(OCCCO)cc2)O[C@@H]1c1ccccc1', 'Calmodulin-1 (Homo sapiens)', -0.201),
  ('C=CC1c2cc(O)c(OC)cc2CCN1Cc1sc2ccccc2c1Cl (stereo unspecified)', 'Calmodulin-1 (Homo sapiens)', 0.248),
  ('C=CCC(OC(C)=O)[C@@H]1[C@@H](N(Cc2cc3ccccc3o2)C(=O)c2ccc(C)cc2)c2cc(OCCCO)ccc2N1C(=O)Cc1ccc2ccccc2c1 (stereo partly specified)', 'Calmodulin-1 (Homo sapiens)', -0.0956);

Turning to the following compound.
# composite z-score (compound: COc1ccc([Si](C)(C)[C@H]2[C@H](CCn3cc([C@H](O)c4ccccc4)nn3)O[C@@]3(C(=O)N(Cc4ccc(N5CCOC5=O)cc4)c4ccccc43)[C@@H]2C)cc1 ) is 0.287
